The measurements presented in this section are drawn from paper PMC3005596.

system-tested: Dicer;TRBPpm (phospho-mimic) (human;human, UniProt Q9UPY3;Q15633 1-1922;1-366, |S142D;S152D;S283D;S286D)
Sequence (Q9UPY3 whole entry, chain 1 of 2): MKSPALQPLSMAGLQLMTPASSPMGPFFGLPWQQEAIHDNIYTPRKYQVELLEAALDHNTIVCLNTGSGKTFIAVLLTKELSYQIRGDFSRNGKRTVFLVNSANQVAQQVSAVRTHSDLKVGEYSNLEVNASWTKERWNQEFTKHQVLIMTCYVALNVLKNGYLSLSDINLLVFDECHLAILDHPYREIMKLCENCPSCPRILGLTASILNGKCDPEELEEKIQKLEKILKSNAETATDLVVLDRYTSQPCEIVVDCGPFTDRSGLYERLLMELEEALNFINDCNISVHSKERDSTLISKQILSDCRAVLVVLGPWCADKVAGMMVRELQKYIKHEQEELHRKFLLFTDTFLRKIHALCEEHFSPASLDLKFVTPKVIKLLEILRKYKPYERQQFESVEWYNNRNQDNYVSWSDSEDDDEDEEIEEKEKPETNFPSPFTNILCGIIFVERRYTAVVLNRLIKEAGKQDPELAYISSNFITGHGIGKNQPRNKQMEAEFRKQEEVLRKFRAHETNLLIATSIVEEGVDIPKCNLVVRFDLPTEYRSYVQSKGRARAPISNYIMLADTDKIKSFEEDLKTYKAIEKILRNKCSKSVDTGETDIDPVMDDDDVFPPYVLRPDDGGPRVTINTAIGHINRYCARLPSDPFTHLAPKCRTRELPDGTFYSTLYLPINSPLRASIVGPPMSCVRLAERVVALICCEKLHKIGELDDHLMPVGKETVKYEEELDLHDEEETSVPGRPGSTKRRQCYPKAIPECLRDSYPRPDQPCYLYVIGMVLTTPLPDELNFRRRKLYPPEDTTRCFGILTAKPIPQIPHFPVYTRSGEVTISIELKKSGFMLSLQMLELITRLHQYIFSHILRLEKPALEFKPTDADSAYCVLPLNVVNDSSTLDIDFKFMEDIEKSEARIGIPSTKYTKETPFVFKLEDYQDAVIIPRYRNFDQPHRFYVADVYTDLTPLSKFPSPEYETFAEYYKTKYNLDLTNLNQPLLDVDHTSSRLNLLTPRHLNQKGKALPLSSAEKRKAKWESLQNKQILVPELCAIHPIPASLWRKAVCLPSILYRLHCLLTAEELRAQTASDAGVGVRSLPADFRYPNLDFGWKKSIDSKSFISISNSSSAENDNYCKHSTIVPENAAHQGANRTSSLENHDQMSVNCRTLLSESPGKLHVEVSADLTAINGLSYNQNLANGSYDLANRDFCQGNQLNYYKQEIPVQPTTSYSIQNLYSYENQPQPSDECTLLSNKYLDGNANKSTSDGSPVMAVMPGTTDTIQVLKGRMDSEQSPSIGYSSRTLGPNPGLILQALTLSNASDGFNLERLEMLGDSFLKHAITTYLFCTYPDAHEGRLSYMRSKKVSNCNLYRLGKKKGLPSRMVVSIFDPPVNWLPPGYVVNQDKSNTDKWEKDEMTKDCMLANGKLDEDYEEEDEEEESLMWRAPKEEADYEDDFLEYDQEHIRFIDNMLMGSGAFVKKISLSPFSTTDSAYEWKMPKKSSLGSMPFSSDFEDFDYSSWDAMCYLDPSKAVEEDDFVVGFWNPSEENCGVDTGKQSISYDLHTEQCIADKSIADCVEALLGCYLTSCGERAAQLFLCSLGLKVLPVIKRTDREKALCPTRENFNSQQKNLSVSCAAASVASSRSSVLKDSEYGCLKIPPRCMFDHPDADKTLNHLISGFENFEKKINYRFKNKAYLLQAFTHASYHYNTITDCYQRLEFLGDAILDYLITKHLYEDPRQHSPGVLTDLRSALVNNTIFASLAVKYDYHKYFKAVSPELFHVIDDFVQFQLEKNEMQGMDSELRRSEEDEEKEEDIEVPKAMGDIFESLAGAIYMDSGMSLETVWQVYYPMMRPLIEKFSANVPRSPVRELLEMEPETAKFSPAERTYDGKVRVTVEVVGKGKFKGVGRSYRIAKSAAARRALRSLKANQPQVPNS
Sequence (Q15633 whole entry S142D/S152D/S283D/S286D, chain 2 of 2): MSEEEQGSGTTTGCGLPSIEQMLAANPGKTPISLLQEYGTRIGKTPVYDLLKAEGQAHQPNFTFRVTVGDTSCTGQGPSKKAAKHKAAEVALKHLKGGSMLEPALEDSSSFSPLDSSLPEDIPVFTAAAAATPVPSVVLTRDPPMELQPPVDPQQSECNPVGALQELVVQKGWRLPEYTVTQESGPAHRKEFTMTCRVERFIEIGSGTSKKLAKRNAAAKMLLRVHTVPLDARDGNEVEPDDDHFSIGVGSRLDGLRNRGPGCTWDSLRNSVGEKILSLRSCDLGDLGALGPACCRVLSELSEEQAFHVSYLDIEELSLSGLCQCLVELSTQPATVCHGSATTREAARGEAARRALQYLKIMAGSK
protocol-notes: filter binding
endpoint-label: Kd

Ask | I have this binder here, pre-let-7a (structured_RNA) RNA: UGAGGUAGUAGGUUGUAUAGUUUUAGGGUCACACCCACCACUGGGAGAUAACUAUACAAUCUACUGUCUUACC , and I need its recorded Kd.
Reply | < 0.04 nM
